Exercise: state measured pIC50 for each of the sequences provided.
Target: HLA-B*08:01
Assay: IEDB peptide-MHC binding, purified MHC/competitive/fluorescence; bounds were set here for any values at or beyond the usual limits of such assays
Details: source organism: Zaire ebolavirus
pIC50: −log10 of the molar value.

Exercise: Which pIC50 reading was recorded for the sequence "HQKKNEISF" ?
Key: 4.37

Exercise: Which pIC50 reading was recorded for the sequence "HSQGREAAV" ?
Key: ≤ 3.77

Exercise: Which pIC50 reading was recorded for the sequence "NFLIKFLLI" ?
Key: ≤ 2.79

Exercise: Which pIC50 reading was recorded for the sequence "RLAKLTEAI" ?
Key: ≤ 3.74

Exercise: Which pIC50 reading was recorded for the sequence "MMKDEPVVF" ?
Key: ≤ 3.69

* * *

Biological target: HLA-A*03:01
Assay: IEDB peptide-MHC binding, purified MHC/competitive/radioactivity; filed as Kd, often an IC50 or EC50 that approximates it; bounds were set here for any values at or beyond the usual limits of such assays
Settings: source organism: Vaccinia virus Copenhagen
measure.name: Kd (nM)
Quick note: give the figure in nM, leave out the unit.

Exercise: Which Kd reading was recorded for the sequence "KQMYRKFSR" ?
Key: 209

* * *

Target: HLA-A*26:01
Test: IEDB peptide-MHC binding, purified MHC/competitive/fluorescence; filed as Kd, often an IC50 or EC50 that approximates it; bounds were set here for any values at or beyond the usual limits of such assays
Conditions: source organism: Human immunodeficiency virus 1
measure.name: Kd

Exercise: Which Kd reading was recorded for the sequence "EIKSLFNTI" ?
Key: ≥ 20 µM

* * *

Molecular target: HLA-A*11:01
Assay: IEDB peptide-MHC binding, purified MHC/competitive/fluorescence; filed as Kd, often an IC50 or EC50 that approximates it; bounds were set here for any values at or beyond the usual limits of such assays
Settings: source organism: Vaccinia virus
pKd: −log10 of the molar value.
measure.name: pKd

Exercise: Which pKd reading was recorded for the sequence "VSEKYTDMY" ?
Key: ≤ 4.70

* * *

Biological target: HLA-A*02:16
Experiment: IEDB peptide-MHC binding, purified MHC/competitive/fluorescence; filed as Kd, often an IC50 or EC50 that approximates it; bounds were set here for any values at or beyond the usual limits of such assays
Conditions: source organism: Vibrio vulnificus YJ016
pKd: −log10 of the molar value.
measure.name: pKd

Exercise: Which pKd reading was recorded for the sequence "DFISMYFPW" ?
Key: ≤ 4.70

* * *

Target: HLA-B*83:01
Test: IEDB peptide-MHC binding, purified MHC/competitive/fluorescence; filed as Kd, often an IC50 or EC50 that approximates it; bounds were set here for any values at or beyond the usual limits of such assays
Conditions: source organism: Homo sapiens
measure.name: Kd

Exercise: Which Kd reading was recorded for the sequence "YEHYFVFAA" ?
Key: ≥ 5 µM

* * *

Molecular target: HLA-B*44:02
Assay: IEDB peptide-MHC binding, purified MHC/direct/fluorescence; filed as Kd, often an IC50 or EC50 that approximates it; bounds were set here for any values at or beyond the usual limits of such assays
Settings: source organism: Shigella dysenteriae
measure.name: Kd

Exercise: Which Kd reading was recorded for the sequence "TTFPVNGGY" ?
Key: ≥ 20 µM

* * *

Biological target: HLA-B*18:01
Test: IEDB peptide-MHC binding, purified MHC/competitive/radioactivity; filed as Kd, often an IC50 or EC50 that approximates it; bounds were set here for any values at or beyond the usual limits of such assays
Conditions: source organism: Mammarenavirus lassaense
pKd: −log10 of the molar value.
measure.name: pKd

Exercise: Which pKd reading was recorded for the sequence "FDAATTGSL" ?
Key: ≤ 4.41

All values here come from the Immune Epitope Database (IEDB).
